// data source = paper PMC5074845

Below is a list of entries, each paired with its recorded Kd value.
Target: NAPE-PLD (Homo sapiens)
Sequence (Q6IQ20 48-393 limits assumed): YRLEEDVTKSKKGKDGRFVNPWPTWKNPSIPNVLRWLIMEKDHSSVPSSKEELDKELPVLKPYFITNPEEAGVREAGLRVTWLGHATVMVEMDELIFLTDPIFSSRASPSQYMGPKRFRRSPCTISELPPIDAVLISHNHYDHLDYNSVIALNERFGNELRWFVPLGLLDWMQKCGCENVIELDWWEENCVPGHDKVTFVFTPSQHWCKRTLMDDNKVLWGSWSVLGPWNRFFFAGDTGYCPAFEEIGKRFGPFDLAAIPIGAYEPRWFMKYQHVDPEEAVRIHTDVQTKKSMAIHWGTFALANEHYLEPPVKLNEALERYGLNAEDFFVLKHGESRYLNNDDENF

Field: example entries. Status: answers known.
C[C@H](CCC(=O)O)[C@H]1CC[C@H]2[C@@H]3CC[C@@H]4C[C@H](O)CC[C@]4(C)[C@H]3C[C@H](O)[C@]12C [DCA, deoxycholic acid] ... ~43 µM
C[C@H](CCC(=O)O)[C@H]1CC[C@H]2[C@@H]3[C@H](O)C[C@@H]4C[C@H](O)CC[C@]4(C)[C@H]3CC[C@]12C [CDCA, chenodeoxycholic acid] ... ~25 µM
C[C@H](CCC(=O)O)[C@H]1CC[C@H]2[C@@H]3CC[C@@H]4C[C@H](O)CC[C@]4(C)[C@H]3CC[C@]12C [LCA, lithocholic acid] ... ~20 µM
CC(=O)O[C@H]1C[C@@]2(C)[C@@H](C[C@@H](O)[C@H]3[C@@]4(C)CC[C@@H](O)[C@@H](C)[C@@H]4CC[C@@]32C)/C1=C(\CCC=C(C)C)C(=O)O [FA, fusidic acid] ... ~70 µM

Please look at the following compound next.
In plain terms, C[C@H](CCC(=O)O)[C@H]1CC[C@H]2[C@@H]3[C@H](O)C[C@@H]4C[C@H](O)CC[C@]4(C)[C@H]3C[C@H](O)[C@]12C [CA, cholic acid] has a documented Kd of ~403 µM
